growth inhibition for assorted compounds
- test.details: NCI Yeast Anticancer Drug Screen. Data for the mlh1 rad18 strain (AID 175)
- condition: S. cerevisiae mlh1 rad18 strain growth inhibition; at 50.0 µM; hits give high values
This is part of a sample that, as a whole, favours compounds with a hit. Of some 79,000 tested, about 15% had one in any assay.

>  <compound>
COC(=O)C1=C(C)N(NC(N)=O)C2(N)N(NC(N)=O)C(C)=C(C(=O)OC)C12C(=O)OC (stereo unspecified)

>  <unit.of.measurement>
%

>  <growth inhibition>
-26.4

$$$$
>  <compound>
O=c1c2ccccc2[nH]c2ccc(Br)cc12

>  <unit.of.measurement>
%

>  <growth inhibition>
17.8

$$$$
>  <compound>
O=C1c2cc(O)c(O)cc2O[C@H](c2ccc(O)c(O)c2)[C@H]1O

>  <unit.of.measurement>
%

>  <growth inhibition>
-46.7

$$$$
>  <compound>
CC(=O)Nc1ccc(/C=N\NC(=S)Nc2ccc(F)cc2)cc1

>  <unit.of.measurement>
%

>  <growth inhibition>
-18.8

$$$$
>  <compound>
Cc1cc(NS(=O)(=O)c2ccc(NC(=O)c3cccc4c(N)c5ccccc5nc34)cc2)no1

>  <unit.of.measurement>
%

>  <growth inhibition>
37

$$$$
>  <compound>
CC(C)=CC(=O)C/C(=N\NC(N)=S)C(=O)Nc1ccc(Cl)cc1

>  <unit.of.measurement>
%

>  <growth inhibition>
-1.3

$$$$
>  <compound>
CCOC(=O)c1c(Br)c(-c2ccc([N+](=O)[O-])cc2)c(Br)n1C

>  <unit.of.measurement>
%

>  <growth inhibition>
-5.2

$$$$
>  <compound>
CC1(C)N=C(C(N)=O)c2ncn(CCO)c2N1

>  <unit.of.measurement>
%

>  <growth inhibition>
-23.4

$$$$
>  <compound>
O/N=C1/CC2CCCCC2CC1(O)c1ccccc1 (stereo unspecified)

>  <unit.of.measurement>
%

>  <growth inhibition>
30.4

$$$$
>  <compound>
Cc1ccc(-n2cnc3c(Cl)ncnc32)cc1[N+](=O)[O-]

>  <unit.of.measurement>
%

>  <growth inhibition>
10.9

$$$$
>  <compound>
CC(=O)OC[C@@H](COC(=O)/C=C/c1ccc(O)cc1)OC1OC(CO)C(O)C(O)C1O (stereo partly specified)

>  <unit.of.measurement>
%

>  <growth inhibition>
-1.8

$$$$

###

- test.details: NCI Yeast Anticancer Drug Screen. Data for the cln2 rad14 strain (AID 165);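 also: 0% = growth equal to vehicle treated cultures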
- condition: S. cerevisiae cln2 rad14 strain, at 50.0 µM, hits give high values
- Protocol: Growth inhibition of yeast strains with defined genetic alterations is measured as a screen for potential anti-cancer activity. Selected strains with alterations in DNA damage repair or cell cycle control were exposed to compounds and growth inhibition was measured relative to vehicle treated controls. The strain used in this assay is cln2 rad14
Compounds without any hit were thinned out: in the full panel of roughly 79,000, 15% have a hit.
growth inhibition for assorted molecules
measure.name: growth inhibition (%)

>  <molecule>
O=Ic1ccccc1

>  <measure.name>
growth inhibition

>  <unit.of.measurement>
%

>  <quantitative.readout>
10.9

$$$$
>  <molecule>
CC(=O)O.Cl.NC1C([O-])OC(CO)C(O)C1O.O=C1OC(C(O)CO)C([O-])=C1[OH2+].[Cu+2] (stereo not given)

>  <measure.name>
growth inhibition

>  <unit.of.measurement>
%

>  <quantitative.readout>
5.95

$$$$
>  <molecule>
N#CCc1nn(-c2ccccc2)c2ncn(N)c(=N)c12

>  <measure.name>
growth inhibition

>  <unit.of.measurement>
%

>  <quantitative.readout>
-22.2

$$$$
>  <molecule>
CCOc1ccc(N=Nc2c(C)nn(C(N)=S)c2OCC)cc1

>  <measure.name>
growth inhibition

>  <unit.of.measurement>
%

>  <quantitative.readout>
-38.5

$$$$
>  <molecule>
O=c1[nH]c2cc([N+](=O)[O-])ccc2nc1/C(=N\Nc1ccccc1)C(O)c1ccc2c(c1)OCO2 (stereo not given)

>  <measure.name>
growth inhibition

>  <unit.of.measurement>
%

>  <quantitative.readout>
29.4

$$$$
>  <molecule>
O=C(NO)C(=O)NO

>  <measure.name>
growth inhibition

>  <unit.of.measurement>
%

>  <quantitative.readout>
-19.4

$$$$
>  <molecule>
COc1ccc(NC2C(=O)C3(C)CCC2C3(C)C)cc1 (stereo not given)

>  <measure.name>
growth inhibition

>  <unit.of.measurement>
%

>  <quantitative.readout>
-49.3

$$$$
>  <molecule>
O=C1CCCC1CC(CN1CCOCC1)Sc1nnnn1-c1ccccc1 (stereo not given)

>  <measure.name>
growth inhibition

>  <unit.of.measurement>
%

>  <quantitative.readout>
-16.6

$$$$
>  <molecule>
Cc1cccc(-n2c(N)cc(=O)[nH]c2=S)n1

>  <measure.name>
growth inhibition

>  <unit.of.measurement>
%

>  <quantitative.readout>
-38.4

$$$$
>  <molecule>
O=S(CCCl)c1ccccc1 (stereo not given)

>  <measure.name>
growth inhibition

>  <unit.of.measurement>
%

>  <quantitative.readout>
10.4

$$$$
>  <molecule>
N/C(=N\O)C(=O)c1ccccc1

>  <measure.name>
growth inhibition

>  <unit.of.measurement>
%

>  <quantitative.readout>
-5.3

$$$$
>  <molecule>
COc1cc(-c2cc(OC)c(N)cc2Br)c(Br)cc1N

>  <measure.name>
growth inhibition

>  <unit.of.measurement>
%

>  <quantitative.readout>
49.9

$$$$
>  <molecule>
COc1cc(C2N3CCCN2CC3)cc(OC)c1OC (stereo not given)

>  <measure.name>
growth inhibition

>  <unit.of.measurement>
%

>  <quantitative.readout>
-3.5

$$$$
>  <molecule>
O=c1cc(Nc2ccc(Cl)cc2)[nH]c(=O)[nH]1

>  <measure.name>
growth inhibition

>  <unit.of.measurement>
%

>  <quantitative.readout>
-61.9

$$$$
>  <molecule>
C[C@@H](C1CCC2C3C(=CC(=O)[C@@]21C)[C@H](C)[C@]1(CCC(=O)O1)C1OC31)[C@H]1C[C@]2(C)O[C@@](C)(O1)OC2(C)C (stereo not given in full)

>  <measure.name>
growth inhibition

>  <unit.of.measurement>
%

>  <quantitative.readout>
-4.85

$$$$
>  <molecule>
CCCC(C)NC(=O)c1ccc(OCC)cc1 (stereo not given)

>  <measure.name>
growth inhibition

>  <unit.of.measurement>
%

>  <quantitative.readout>
-44

$$$$
>  <molecule>
Cc1cc(C)c2[nH]c(=O)c(Br)c(C)c2c1

>  <measure.name>
growth inhibition

>  <unit.of.measurement>
%

>  <quantitative.readout>
22.1

$$$$
>  <molecule>
CCCCOc1ccc(Nc2c(C(=O)O)cnc3cc4c(cc23)OCO4)cc1

>  <measure.name>
growth inhibition

>  <unit.of.measurement>
%

>  <quantitative.readout>
5.4

$$$$
>  <molecule>
NC(=O)C(=CNC(=S)Nc1ccc(S(N)(=O)=O)cc1)C(N)=O

>  <measure.name>
growth inhibition

>  <unit.of.measurement>
%

>  <quantitative.readout>
2.9

$$$$
>  <molecule>
CCOC(=O)C(Cl)(Cl)C(Cl)(OCC)C(=O)OCC (stereo not given)

>  <measure.name>
growth inhibition

>  <unit.of.measurement>
%

>  <quantitative.readout>
-24.4

$$$$
>  <molecule>
NC(CCCNCc1ccccc1)C(=O)O (stereo not given)

>  <measure.name>
growth inhibition

>  <unit.of.measurement>
%

>  <quantitative.readout>
12.3

$$$$
>  <molecule>
CCOCCN(CCOCC)c1ncnc2[nH]ncc12

>  <measure.name>
growth inhibition

>  <unit.of.measurement>
%

>  <quantitative.readout>
-25.2

$$$$
>  <molecule>
O=C1c2ccccc2-c2cc(F)ccc21

>  <measure.name>
growth inhibition

>  <unit.of.measurement>
%

>  <quantitative.readout>
-6.25

$$$$
>  <molecule>
N#C/C(=C\c1cccs1)C(N)=S

>  <measure.name>
growth inhibition

>  <unit.of.measurement>
%

>  <quantitative.readout>
-31.2

$$$$
>  <molecule>
Cc1ccc(NC(=S)N2CCCCC2C)cc1C (stereo not given)

>  <measure.name>
growth inhibition

>  <unit.of.measurement>
%

>  <quantitative.readout>
3.1

$$$$
